# measurement_target: Type II NADH:quinone oxidoreductase NdhA (Mycobacterium tuberculosis)
# Sequence (P95200 whole entry): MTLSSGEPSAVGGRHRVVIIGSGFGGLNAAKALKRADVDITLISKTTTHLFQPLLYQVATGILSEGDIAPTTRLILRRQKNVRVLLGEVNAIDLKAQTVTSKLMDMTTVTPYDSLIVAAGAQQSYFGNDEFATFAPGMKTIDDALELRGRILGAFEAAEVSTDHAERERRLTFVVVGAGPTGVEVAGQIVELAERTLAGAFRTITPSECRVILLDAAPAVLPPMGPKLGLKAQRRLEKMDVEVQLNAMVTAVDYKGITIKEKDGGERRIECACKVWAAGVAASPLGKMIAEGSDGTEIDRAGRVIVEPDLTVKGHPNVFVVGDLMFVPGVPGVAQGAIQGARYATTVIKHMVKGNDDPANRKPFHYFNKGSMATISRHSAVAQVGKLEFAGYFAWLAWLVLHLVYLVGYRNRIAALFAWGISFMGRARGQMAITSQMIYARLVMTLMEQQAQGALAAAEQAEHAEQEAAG
# protocol_description: Inhibition of Mycobacterium smegmatis MC2 155 recombinant ndhA assessed as rate of NADH oxidation in the presence of an electron acceptor menadione
pIC50: −log10 of the molar value.
Label rule, in plain words: pIC50 of 6 and up is true (1), under 6 is false (0).

Illustrative cases are given below, each with its answer.
smiles_text: COc1ccc(CN2CC[C@]34OC[C@H](C(C)C)N3C(=O)CC[C@@H]4C2)cc1
measurement_target: Type II NADH:quinone oxidoreductase NdhA (Mycobacterium tuberculosis)
assigned_category: false (0)
//
smiles_text: CC(C)[C@H]1CO[C@]23CCN(Cc4ccc(C(F)(F)F)cc4)C[C@H]2CCC(=O)N13
measurement_target: Type II NADH:quinone oxidoreductase NdhA (Mycobacterium tuberculosis)
assigned_category: true (1)
//
smiles_text: CC(C)[C@H]1CO[C@]23CCN(Cc4ccc(Cl)cc4)C[C@H]2CCC(=O)N13
measurement_target: Type II NADH:quinone oxidoreductase NdhA (Mycobacterium tuberculosis)
assigned_category: true (1)

Next, consider the following molecule.
**Query** Reported pIC50 at or above 6? CC(C)[C@H]1CO[C@]23CCN(Cc4ccc(C(F)(F)F)nc4)C[C@H]2CCC(=O)N13
**Result** true (1)

###

Recorded logD values for a group of compounds are listed next.
# protocol_description: Octanol/PBS partition coefficient, logD of compound at pH 7.4 measured after 2 hrs by shake flask method
# Assay type: physicochemical
# reported_conditions: octanol/water, pH 7.4, 2 h

Completed entries (count: 3):
smiles_text: CC(C)[C@H]1CO[C@]23CCN(Cc4ccc(OC(F)(F)F)cc4)C[C@H]2CCC(=O)N13
logD: 3.9
//
smiles_text: CC(C)[C@H]1CO[C@]23CCN(Cc4ccccc4)C[C@H]2CCC(=O)N13
logD: 2.7
//
smiles_text: CC(C)[C@H]1CO[C@]23CCN(Cc4ccc(C(F)(F)F)nc4)C[C@H]2CCC(=O)N13
logD: 2.7

Now examine the next entry.
According to the records, this compound CC(C)[C@H]1CO[C@]23CCN(Cc4ccc(C(F)(F)F)cc4)C[C@H]2CCC(=O)N13 displays logD of 3.4

All values here come from ChEMBL document CHEMBL5150070.
